Measured pIC50, listed per entry for reference.
target: UniProt Q16539
Sequence (Q16539 whole entry, looked up): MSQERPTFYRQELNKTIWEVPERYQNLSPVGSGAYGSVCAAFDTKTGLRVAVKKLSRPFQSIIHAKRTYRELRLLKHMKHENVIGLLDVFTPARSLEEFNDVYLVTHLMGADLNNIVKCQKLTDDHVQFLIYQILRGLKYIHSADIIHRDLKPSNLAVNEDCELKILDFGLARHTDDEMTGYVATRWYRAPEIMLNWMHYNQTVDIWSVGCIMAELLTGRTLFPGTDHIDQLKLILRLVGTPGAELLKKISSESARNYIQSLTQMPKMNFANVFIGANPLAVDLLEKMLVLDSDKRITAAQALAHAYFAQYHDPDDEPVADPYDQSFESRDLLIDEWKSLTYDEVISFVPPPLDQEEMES
# reply with the number alone; pIC50 is -log10 of concentration in mol/L

Reference set (5 entries):
{"columns": ["Molecule", "pIC50"],
 "data": [
  ["Cc1ccc(NC(=O)c2ccnc(N3CCOCC3)c2)cc1Nc1ccnc(Cl)n1", 7.72],
  ["COc1cc2ncnc(Nc3cc(NC(=O)c4ccccc4)ccc3C)c2cc1OC", 7.11],
  ["Cc1ccc(NC(=O)c2ccnc(N3CCOCC3)c2)cc1Nc1ccnc(NCCCN2CCCC2)n1", 7.24],
  ["Cc1ccc(NC(=O)c2ccnc(N3CCOCC3)c2)cc1Nc1ccnc(OCC2CCCN(C)C2)n1 (stereo unspecified)", 7.48],
  ["CSc1nccc(Nc2cc(NC(=O)c3cc(F)cc(N4CCOCC4)c3)ccc2C)n1", 7.85]
]}

Kindly review the next molecule as well.
Query: Tell me the measured pIC50 of "COc1cc2ncnc(Nc3cc(NC(=O)c4cccc(N(C)C)c4)ccc3Cl)c2cc1OC" , please.
Result: 7.33
